Data provenance: patent US6372772B1

# System tested: UniProt:Q16881
# Sequence (Q16881 1-499 isoform Q16881-5): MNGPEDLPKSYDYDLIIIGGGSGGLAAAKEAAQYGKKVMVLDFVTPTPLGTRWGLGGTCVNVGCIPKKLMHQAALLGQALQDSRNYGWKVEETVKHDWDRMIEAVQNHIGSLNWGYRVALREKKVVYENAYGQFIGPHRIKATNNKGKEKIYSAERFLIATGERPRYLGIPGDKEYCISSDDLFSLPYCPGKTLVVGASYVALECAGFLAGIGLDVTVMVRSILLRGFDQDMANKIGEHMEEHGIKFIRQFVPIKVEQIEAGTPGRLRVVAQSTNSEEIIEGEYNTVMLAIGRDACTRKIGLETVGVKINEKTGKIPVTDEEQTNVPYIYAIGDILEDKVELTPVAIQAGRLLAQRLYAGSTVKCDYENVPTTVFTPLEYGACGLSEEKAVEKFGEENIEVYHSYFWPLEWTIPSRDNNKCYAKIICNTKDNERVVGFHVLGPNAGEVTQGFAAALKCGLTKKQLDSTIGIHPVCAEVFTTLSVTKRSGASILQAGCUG
Assay endpoint: pIC50
Please report pIC50 as the negative decimal logarithm of the molar concentration, giving only the number.

# input Value lookup for pIC50; key = Cc1cccc2c1c1ccc3c(c1n2C)C(=O)C=CC3=O [NSC 645330]
# output 3.74

###

# System tested: thioredoxin reductase/thioredoxin (Homo sapiens, UniProt Q16881)
# Assay comment: thioredoxin reductase/thioredoxin-dependent insulin reduction assay
# Assay type: biochemical
# Condition summary: ratio of IC50 TR alone and IC50 TR/Trx assay
Catalogue of TR/TRTrx values
Give the value as a plain number.

Consider the worked cases shown below.
Compound	Readout value
CCCC(=O)OC1C2C(CC1(C)C)C(=O)C13OC1C(=O)C1(CO1)C23C (stereo not shown)	13.2
CC(C)(CN1C(=O)C(Cl)=C(Cl)C1=O)CN1C(=O)C(Cl)=C(Cl)C1=O	0.8
O=[N+]([O-])C(=C(Sc1ccccc1)Sc1ccccc1)C(Cl)=C(Cl)Cl	50.0

From here, focus on the item given below.
# input Value lookup for TR/TRTrx; key = CC1COC2C3=C(C(=O)C=CC3=O)C3OC(=O)C4CCC5CC1CCC52C43 (stereo not shown)
# output 1.7
